Attribute: IC50
- Test system: hA2a/CHO (Homo sapiens (Human), UniProt P29274)
- Sequence (P29274 whole entry): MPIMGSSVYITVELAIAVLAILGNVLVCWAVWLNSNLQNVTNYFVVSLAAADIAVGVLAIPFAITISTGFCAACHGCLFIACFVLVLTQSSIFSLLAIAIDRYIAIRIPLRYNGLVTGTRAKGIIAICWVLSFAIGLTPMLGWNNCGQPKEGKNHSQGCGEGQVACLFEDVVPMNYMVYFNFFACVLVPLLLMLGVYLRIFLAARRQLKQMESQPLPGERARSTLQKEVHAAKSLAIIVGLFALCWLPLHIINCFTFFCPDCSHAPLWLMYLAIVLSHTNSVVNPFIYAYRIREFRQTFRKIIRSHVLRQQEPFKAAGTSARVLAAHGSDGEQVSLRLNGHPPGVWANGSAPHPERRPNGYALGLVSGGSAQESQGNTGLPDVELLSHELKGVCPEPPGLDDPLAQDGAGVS
- Assay name: cAMP inhibition assay in hA2a/CHO cells, 10 μM adenosine;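 also: compounds added to cells 30 min ahead of adenosine, then a further 30 min at 37 °C with adenosine before cAMP detection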
- Format: cell-based
- Condition label: read-out: cAMP & FLIPR IC50 (nM) hA2a
Answer format: numeric, nM implied, no suffix.

- Molecule: "Cc1cnc2ccc(-c3nc(C(=O)NC(C)C4CCCO4)c(N)nc3-c3ncco3)cn12 (single isomer, unassigned; isomer 3) [Example 274]"
  Test system: "hA2a/CHO (Homo sapiens (Human), UniProt P29274)"
  Unit label: "nM"
  Readout number: 0.9
- Molecule: "Cc1cnc2ccc(-c3nc(C(=O)NCc4cccc(N5[C@@H]6C[C@H]5CN(C)C6)n4)c(N)nc3-c3ncco3)cn12"
  Test system: "hA2a/CHO (Homo sapiens (Human), UniProt P29274)"
  Unit label: "nM"
  Readout number: 6.9

Next item in the queue.
Fill in the blank: the reported IC50 of Cn1cc(-c2nc(C(=O)NCc3ccccc3F)c(N)nc2-c2ncco2)ccc1=O is ____.
13
